# PROTOCOL SUMMARY: Tmax in fasting human interstitial-space fluid of subcutaneous adipose tissue at 250 mg, po
# Type: ADME, organism-based
MEASURED PROPERTY: Tmax
Write the numeric value and append its unit.

(Q) Please report the recorded Tmax for CC[C@H]1OC(=O)[C@H](C)[C@@H](O[C@H]2C[C@@](C)(OC)[C@@H](O)[C@H](C)O2)[C@H](C)[C@@H](O[C@@H]2O[C@H](C)C[C@H](N(C)C)[C@H]2O)[C@](C)(OC)C[C@@H](C)C(=O)[C@H](C)[C@@H](O)[C@]1(C)O [CLARITHROMYCIN] .
(A) 3 h

---

# PROTOCOL SUMMARY: Total clearance in human plasma at 500 mg, po, bid for 3 to 5 days
# Assay type: ADME, organism-based
MEASURED PROPERTY: CL/F (mL/min)
Please respond with the number in mL/min and leave the unit unwritten.

(Q) Please report the recorded CL/F for `CC[C@H]1OC(=O)[C@H](C)[C@@H](O[C@H]2C[C@@](C)(OC)[C@@H](O)[C@H](C)O2)[C@H](C)[C@@H](O[C@@H]2O[C@H](C)C[C@H](N(C)C)[C@H]2O)[C@](C)(OC)C[C@@H](C)C(=O)[C@H](C)[C@@H](O)[C@]1(C)O` .
(A) 312
